target: Mitogen-activated protein kinase 10 (Mus musculus) (UniProt Q61831); experiment: JNK3 AlphaScreen Assay (AID 530); details: JNK3 lysate, c-Jun phosphorylation; series mostly up to 11.4 µM;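 note: kinase came from lysate of stimulated human HepG2 cells; signal reports phosphorylation of biotinylated GST-cJun 1-79 at Ser73 with 10 µM ATP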
Inconclusive results are not listed. The source made the active and inactive calls. Calls come from the whole dose curve; as a rule, active = well fitted curve in either direction with a large enough effect (not every such curve was filed as active); inconclusive = small, poorly fitted or top-dose-only effect, or another doubt; inactive = flat fitted curve, though single readings scatter.
property name: outcome

// known answers, use as guide
>  <compound structure>
O=c1[nH]c(SCc2cccc([N+](=O)[O-])c2)nc2nc[nH]c12

>  <outcome>
inactive

$$$$
>  <compound structure>
O=c1[nH]c(=O)n([C@H]2C[C@H](O)[C@H](CO)O2)cc1Br

>  <outcome>
inactive

$$$$
>  <compound structure>
O=C(O)C[C@H]1OCC=C2C[N@@+]3([O-])CC[C@]45c6ccccc6N[C@@H]4[C@@H]1[C@H]2C[C@H]53

>  <outcome>
inactive

$$$$
>  <compound structure>
C(=Nc1ccc2c(c1)Cc1ccccc1-2)c1ccccn1

>  <outcome>
inactive

$$$$
>  <compound structure>
CC(=O)[C@@H]1CC[C@@H]2[C@@H]3CC=C4C[C@H](OS(=O)(=O)O)CC[C@@]4(C)[C@H]3CC[C@]21C

>  <outcome>
inactive

$$$$
>  <compound structure>
CNc1ncnc(Sc2nc(N)nc3nc[nH]c23)c1[N+](=O)[O-]

>  <outcome>
inactive

$$$$
>  <compound structure>
CC(CCC(=O)O)(c1cc(Br)c(O)c(Br)c1)c1cc(Br)c(O)c(Br)c1

>  <outcome>
inactive

$$$$
>  <compound structure>
[O-][N+](CCO)(CCO)c1ncnc2nc[nH]c12

>  <outcome>
inactive

$$$$
>  <compound structure>
Cn1c(C[C@@H](O)c2nc3ccccc3n2C)nc2ccccc21

>  <outcome>
inactive

$$$$

Now take the following compound into account.
Report outcome for O=C(CSC1=NCCN1)c1ccccc1
inactive
